- measurement protocol: qHTS for Inhibitors of human tyrosyl-DNA phosphodiesterase 1 (TDP1): qHTS in cells in absence of CPT; further: nearly all actives have a fitted effect of over 55% in size
- experimental setup: DT40 Tdp1-/- hTDP1 cells, no CPT, ATP luminescence, 48 h
About 64,000 (15%) of roughly 420,000 compounds were called active. Not shown: some 27% with an inconclusive outcome. The call rests on the fitted dose curve; in most records, active means well fitted inhibition curve with a large enough effect; inconclusive means small, poorly fitted or top-dose-only effect; inactive means flat fitted curve, though single readings scatter. The list is a sample of the results.
Possible outcomes: True for active, False for inactive

> print(dat)
                                    compound  class.label
 1  C=CCn1c(SCC(=O)NC(=O)Cc2ccccc2)nc2ccccc2c1=O        False
 2  CC1CCCCC12NC(=O)N(CC(=O)Nc1ccc(S(=O)(=O)Nc3ncccn3)cc1)C2=O (stereo not drawn)        False
 3     COc1cccc(NC(=O)COC(=O)/C=C/c2ccco2)c1        False
 4  Cc1ccc(-n2nc3ccc(NC(=O)/C=C/c4ccco4)cc3n2)cc1C         True
 5            O=[N+]([O-])c1ccccc1SNc1ccccn1         True
 6  Cc1nn2c(=O)cc(COC(=O)c3ccccc3NC(=O)COc3ccccc3C)nc2s1        False
 7          CC(C)(C)NC(=O)C(=O)NN=C1CCCCCCC1        False
 8         CCc1ccc(-c2nnn(Cc3nn[nH]n3)n2)cc1        False
 9  CCCCN(C(=O)c1cccc(N2C(=O)c3ccccc3C2=O)c1)c1c(N)n(CCCC)c(=O)[nH]c1=O        False
10  Nc1nc(SCC(=O)NN(c2ccccc2)c2ccccc2)n[nH]1        False
11    c1ccc(-c2[nH]ncc2-c2nc3ccccc3[nH]2)cc1        False
12     Cc1ccc(CSc2nc3ccsc3c(=O)n2CCC(C)C)cc1         True
13    CCN1CCN(C(=O)CCN2C(=O)c3ccccc3C2=O)CC1        False
14  O=C(/C=C/c1ccco1)Nc1cccc(-c2nc3ccccc3[nH]2)c1         True
15  CCCCN(C(=O)C1=NN(c2cc(C)ccc2C)C(=O)CC1)c1c(N)n(CCC)c(=O)[nH]c1=O        False
16  NS(=O)(=O)c1cccc(NC(=O)COC(=O)/C=C/c2ccco2)c1        False
17              CCc1ccc(C(=O)NN=C2CCCCCC2)s1        False
18          O=C(CSC(=S)N1CCCCC1)c1c(F)cccc1F         True
19  CC1Cc2ccccc2N1S(=O)(=O)c1c(N)n(C)c(=O)n(C)c1=O (stereo not drawn)        False
20  Cc1ccc(CNC(=O)CN2CCN(Cc3ccc(Cl)cc3)C2=O)cc1        False
21  O=C(NCCCN1CCOCC1)c1cn(-c2ccccc2)nc1-c1ccc(F)cc1        False
22  C=CC[C@H](CC(=O)NCCO)C(=O)N[C@@H](COC(=O)[C@@H](CC=C)Cc1ccc(F)cc1)Cc1c[nH]c2ccccc12         True
23  C=CCC[C@@H](Cc1ccc(F)cc1)C(=O)OC[C@H](Cc1c[nH]c2ccccc12)NC(=O)[C@@H](CC=C)CC(=O)N(CCO)Cc1ccccc1         True
24  C=CCC[C@@H](CCCCC)OC(=O)/C=C/[C@@H](O)[C@H](O)C[C@H](O)CC=C         True
25  O=C(Nc1cccc(-c2nc3ccccc3[nH]2)c1)c1ccc(C(=O)Nc2cccc(-c3nc4ccccc4[nH]3)c2)cc1         True
26  O=C(O)CC12CC3CC(C1)CC(n1ncc(NCc4ccc(F)cc4)c(Cl)c1=O)(C3)C2        False
27    Cc1cc(N)n2nc(-c3ccc(C(C)(C)C)cc3)cc2n1         True
28  Nc1ccccc1C(=O)NC1CCCCNC1=O (stereo not drawn)        False
29  O=C(CSc1nnc(-c2ccc([N+](=O)[O-])cc2)o1)Nc1ccccn1        False
30  Cc1c(Cl)cnc(NC(=O)COC(=O)c2ccc(S(=O)(=O)NCc3ccco3)cc2)c1Cl        False
31            O=C(CN1CCCCC1)NC(=O)Nc1ccccc1F        False
32  C=CCC[C@H](CCCCC)OC(=O)/C=C/[C@H](O)[C@@H](O)C[C@@H](O)CC=C         True
33  C=CC[C@@H](CC(=O)NCCO)C(=O)N[C@H](C)COC(=O)[C@@H](CC=C)CC(=O)OC(C)(C)C        False
34  CC1CCCCC1NC(=O)COC(=O)Cc1ccc(Cl)cc1 (stereo not drawn)        False
35  CC1CCCC(NC(=O)CN2CCN(Cc3ccc(Cl)cc3)C2=O)C1C (stereo not drawn)         True
36  CNS(=O)(=O)c1ccc(NC(=O)C2CC(=O)N(c3ccc(Cl)cc3)C2)cc1 (stereo not drawn)        False
37        O=C(O)c1c(NC(=O)N2CCCC2)sc2c1CCCC2        False
38  CCc1ccc(N2CC(C(=O)NC3=NCCS3)CC2=O)cc1 (stereo not drawn)        False
